Where a name gives a salt, the structure may show the parent alone.
Catalogue of molecules with associated melting point
Write the answer as a number in °C, unit excluded.

// solved cases for melting point follow
{"columns": ["molecule", "unit-symbol", "melting point"],
 "data": [
  ["CN(C1CCN(CCCC(F)(F)F)CC1)S(=O)(=O)c1ccc(Nc2nccc(Nc3ccc(F)c(F)c3)n2)cc1", "°C", 192],
  ["Cc1cc(Nc2ccnc(Nc3ccc(S(=O)(=O)N(CCN)C4CCN(C)CC4)cc3)n2)ccc1F (as salt: hydrochloride)", "°C", 220],
  ["Cc1cc(Nc2ccnc(Nc3ccc(S(=O)(=O)N(CC4CCCO4)C4CCC(=O)CC4)cc3)n2)ccc1F (stereo not drawn)", "°C", 189],
  ["Cc1cc(Nc2ccnc(Nc3ccc(S(=O)(=O)N(Cc4ccco4)C4CCC(=O)CC4)cc3)n2)ccc1F", "°C", 184],
  ["CCN1CC(N(CCN2CCCC2)S(=O)(=O)c2ccc(Nc3nccc(Nc4ccc(F)c(C)c4)n3)cc2)C1", "°C", 195]
]}

QUERY: What melting point value was documented for this molecule, Cc1cc(Nc2ccnc(Nc3ccc(S(=O)(=O)N(CCN)C4CNC4)cc3)n2)ccc1F (as salt: hydrochloride) ?
RESULT: 205

QUERY: Find the recorded melting point belonging to CN(C1CCN(CCS(C)(=O)=O)CC1)S(=O)(=O)c1ccc(Nc2nccc(Nc3ccc(F)c(F)c3)n2)cc1 and report it.
RESULT: 204

* * *

Counter-ions that a name gives are not always drawn.
measurement-label: melting point (°C)
API: value field is a number in °C; no unit string.

{"columns": ["molecule", "melting point / °C"],
 "data": [
  ["COCCN(C1CCS(=O)(=O)C1)S(=O)(=O)c1ccc(Nc2nccc(Nc3ccc(F)cc3)n2)cc1 (stereo not shown)", 150]
]}

Here is the next item to consider.
QUERY: Requested field: melting point. Item: NCCN(C1CCOCC1)S(=O)(=O)c1ccc(Nc2nccc(Nc3ccc(F)cc3)n2)cc1 (as salt: hydrochloride)
RESULT: 200

* * *

The compounds listed here are annotated with their melting point.

QUERY: # get_value(readout='melting point', item= CN1CCC(N(Cc2cccn2C)S(=O)(=O)c2ccc(Nc3nccc(Nc4ccc(F)cc4)n3)cc2)CC1 )
RESULT: 129 °C

QUERY: // query melting point value for entry CN1CCC(N(C)S(=O)(=O)c2ccc(Nc3nccc(Nc4ccc(F)c(F)c4)n3)cc2)CC1
RESULT: 181 to 183 °C

QUERY: Which melting point is reported for this compound? Cc1cc(Nc2ccnc(Nc3ccc(S(=O)(=O)N(C)C4CCN(Cc5cccn5C)CC4)cc3)n2)ccc1F
RESULT: 159 to 160 °C

QUERY: If you can, please state the reported melting point value of CC(C)N1CCC(N(C)S(=O)(=O)c2ccc(Nc3nccc(Nc4ccc(F)cc4)n3)cc2)CC1 .
RESULT: 202 to 203 °C

* * *

Each entry below carries its reported melting point.
Counter-ions that a name gives are not always drawn.
The reply should contain only the number, in °C.

Here is how some molecules turned out for melting point.
{"columns": ["molecule", "melting point [°C]"],
 "data": [
  ["CCOP(=O)(CCN1CCC(NS(=O)(=O)c2ccc(Nc3nccc(Nc4ccc(F)c(F)c4)n3)cc2)CC1)OCC", 133],
  ["CCOP(=O)(CCN1CCC(N(CCN)S(=O)(=O)c2ccc(Nc3nccc(Nc4ccc(F)cc4)n3)cc2)CC1)OCC", 90],
  ["CN(C1CCN(Cc2cccc(F)c2)CC1)S(=O)(=O)c1ccc(Nc2nccc(Nc3ccc(F)cc3)n2)cc1 [Example 32]", 207],
  ["CN1CCC(N(CCN2CCCC2)S(=O)(=O)c2ccc(Nc3nccc(Nc4ccc(F)cc4)n3)cc2)CC1 [Example 89]", 250]
]}

QUERY: Report melting point for O=S(=O)(c1ccc(Nc2nccc(Nc3ccc(F)cc3)n2)cc1)N(CCN1CCCC1)C1CNC1 (as salt: hydrochloride) [Example 96] please.
RESULT: 215

QUERY: What measured melting point goes with CN1CCC(N(C)S(=O)(=O)c2ccc(Nc3nccc(Nc4cc(F)c(F)c(F)c4)n3)cc2)CC1 [Example 162] ?
RESULT: 226.9

QUERY: For the molecule shown here, Cc1cc(Nc2ccnc(Nc3ccc(S(=O)(=O)N(C)C4CCN(CCS(C)(=O)=O)CC4)cc3)n2)ccc1F [Example 129] , give the reported melting point.
RESULT: 114.5

QUERY: Recorded melting point of CNC1CCC(N(CCN2CCCC2)S(=O)(=O)c2ccc(Nc3nccc(Nc4ccc(F)cc4)n3)cc2)CC1 (stereo not drawn) [Example 147] , please.
RESULT: 128

QUERY: Given the molecule CN(C1CCC(O)CC1)S(=O)(=O)c1ccc(Nc2nccc(Nc3ccc(F)cc3)n2)cc1 (stereo not drawn) [Example 120] , what is its reported melting point?
RESULT: 203

* * *

# melting point per entry
Counter-ions that a name gives are not always drawn.

{"columns": ["molecule", "measurement-label", "result"],
 "data": [
  ["CN(C1CCN(Cc2ccccc2F)CC1)S(=O)(=O)c1ccc(Nc2nccc(Nc3ccc(F)cc3)n2)cc1 [Example 31]", "melting point", "182 to 183 °C"],
  ["CN(C1CCN(Cc2ccccn2)CC1)S(=O)(=O)c1ccc(Nc2nccc(Nc3ccc(F)cc3)n2)cc1 [Example 9]", "melting point", "202 to 204 °C"],
  ["Cc1cc(Nc2ccnc(Nc3ccc(S(=O)(=O)N(CCN)C4CCNCC4)cc3)n2)ccc1F [Example 48]", "melting point", "242 to 244 °C"],
  ["CNC1CCC(N(C)S(=O)(=O)c2ccc(Nc3nccc(Nc4ccc(F)cc4)n3)cc2)CC1 (stereo not drawn) [Example 121]", "melting point", "192 °C"],
  ["CN(C1CCNCC1)S(=O)(=O)c1ccc(Nc2nccc(Nc3ccc(F)c(F)c3)n2)cc1 (as salt: hydrochloride)", "melting point", "275 °C"],
  ["CN1CCC(N(C[C@H]2CCCN2)S(=O)(=O)c2ccc(Nc3nccc(Nc4ccc(F)cc4)n3)cc2)CC1 (as salt: hydrochloride) [Example 124]", "melting point", "200 °C"]
]}

QUERY: For CN1CCC(N(C)S(=O)(=O)c2ccc(Nc3nccc(Nc4ccc(F)cc4)n3)cc2)CC1 [Example 1] , what is its reported melting point?
RESULT: 205 to 210 °C

QUERY: I am curious: what melting point value has been reported for CCCN(C1CCN(C)CC1)S(=O)(=O)c1ccc(Nc2nccc(Nc3ccc(F)cc3)n2)cc1 [Example 130] ?
RESULT: 232 °C

QUERY: Tell me the measured melting point of O=S(=O)(c1ccc(Nc2nccc(Nc3ccc(F)cc3)n2)cc1)N(CCN1CCCC1)[C@H]1CC[C@H](O)CC1 [Example 119] , please.
RESULT: 135.2 °C

QUERY: Requested field: melting point. Item: Cc1cc(Nc2ccnc(Nc3ccc(S(=O)(=O)N(CCN4CCCC4)C4CNC4)cc3)n2)ccc1F (as salt: hydrochloride) [Example 97]
RESULT: 231 to 235 °C

* * *

Counter-ions that a name gives are not always drawn.
measurement-label: melting point (°C)
Reply numerically in °C, unit not repeated.

Examples with answers:
{"columns": ["molecule", "result-number"],
 "data": [
  ["CCNCCN(C1CCNCC1)S(=O)(=O)c1ccc(Nc2nccc(Nc3ccc(F)cc3)n2)cc1 (as salt: hydrochloride)", 250],
  ["CSCCNC1CCC(N(C)S(=O)(=O)c2ccc(Nc3nccc(Nc4ccc(F)cc4)n3)cc2)CC1 (stereo not drawn) [Example 145]", 171],
  ["CC(C)(O)CNCCN(C1CCNCC1)S(=O)(=O)c1ccc(Nc2nccc(Nc3ccc(F)cc3)n2)cc1", 120],
  ["CN1CCC(N(CC2CCCO2)S(=O)(=O)c2ccc(Nc3nccc(Nc4ccc(F)cc4)n3)cc2)CC1 (racemic)", 189],
  ["Cc1ncc(CN2CCC(N(C)S(=O)(=O)c3ccc(Nc4nccc(Nc5ccc(F)cc5)n4)cc3)CC2)[nH]1", 155]
]}

QUERY: Report melting point for CN(C)C1CCC(N(C)S(=O)(=O)c2ccc(Nc3nccc(Nc4ccc(F)cc4)n3)cc2)CC1 (stereo not drawn) [Example 141] please.
RESULT: 218

* * *

melting point: recorded values
Where a name gives a salt, the structure may show the parent alone.

A selection of reference data follows.
{"columns": ["compound", "melting point"],
 "data": [
  ["CCN(C1CCN(C)CC1)S(=O)(=O)c1ccc(Nc2nccc(Nc3ccc(F)cc3)n2)cc1", "154 °C"],
  ["CN1CCC(N(C[C@@H]2CCCN2)S(=O)(=O)c2ccc(Nc3nccc(Nc4ccc(F)cc4)n3)cc2)CC1 (as salt: hydrochloride)", "200 °C"],
  ["CCOP(=O)(CCCN1CCC(NS(=O)(=O)c2ccc(Nc3nccc(Nc4ccc(F)cc4)n3)cc2)CC1)OCC", "110 °C"],
  ["CN(C)CCN(C1CCNCC1)S(=O)(=O)c1ccc(Nc2nccc(Nc3ccc(F)cc3)n2)cc1 (as salt: hydrochloride)", "220 °C"]
]}

QUERY: What value of melting point has been reported for the following compound? Cc1cc(Nc2ccnc(Nc3ccc(S(=O)(=O)N(CCN)C4CCN(CC(F)(F)F)CC4)cc3)n2)ccc1F (as salt: hydrochloride)
RESULT: 225 °C
